# measurement-target: HEKn (EGFR WT) (Homo sapiens)
# Sequence (P00533 25-1210): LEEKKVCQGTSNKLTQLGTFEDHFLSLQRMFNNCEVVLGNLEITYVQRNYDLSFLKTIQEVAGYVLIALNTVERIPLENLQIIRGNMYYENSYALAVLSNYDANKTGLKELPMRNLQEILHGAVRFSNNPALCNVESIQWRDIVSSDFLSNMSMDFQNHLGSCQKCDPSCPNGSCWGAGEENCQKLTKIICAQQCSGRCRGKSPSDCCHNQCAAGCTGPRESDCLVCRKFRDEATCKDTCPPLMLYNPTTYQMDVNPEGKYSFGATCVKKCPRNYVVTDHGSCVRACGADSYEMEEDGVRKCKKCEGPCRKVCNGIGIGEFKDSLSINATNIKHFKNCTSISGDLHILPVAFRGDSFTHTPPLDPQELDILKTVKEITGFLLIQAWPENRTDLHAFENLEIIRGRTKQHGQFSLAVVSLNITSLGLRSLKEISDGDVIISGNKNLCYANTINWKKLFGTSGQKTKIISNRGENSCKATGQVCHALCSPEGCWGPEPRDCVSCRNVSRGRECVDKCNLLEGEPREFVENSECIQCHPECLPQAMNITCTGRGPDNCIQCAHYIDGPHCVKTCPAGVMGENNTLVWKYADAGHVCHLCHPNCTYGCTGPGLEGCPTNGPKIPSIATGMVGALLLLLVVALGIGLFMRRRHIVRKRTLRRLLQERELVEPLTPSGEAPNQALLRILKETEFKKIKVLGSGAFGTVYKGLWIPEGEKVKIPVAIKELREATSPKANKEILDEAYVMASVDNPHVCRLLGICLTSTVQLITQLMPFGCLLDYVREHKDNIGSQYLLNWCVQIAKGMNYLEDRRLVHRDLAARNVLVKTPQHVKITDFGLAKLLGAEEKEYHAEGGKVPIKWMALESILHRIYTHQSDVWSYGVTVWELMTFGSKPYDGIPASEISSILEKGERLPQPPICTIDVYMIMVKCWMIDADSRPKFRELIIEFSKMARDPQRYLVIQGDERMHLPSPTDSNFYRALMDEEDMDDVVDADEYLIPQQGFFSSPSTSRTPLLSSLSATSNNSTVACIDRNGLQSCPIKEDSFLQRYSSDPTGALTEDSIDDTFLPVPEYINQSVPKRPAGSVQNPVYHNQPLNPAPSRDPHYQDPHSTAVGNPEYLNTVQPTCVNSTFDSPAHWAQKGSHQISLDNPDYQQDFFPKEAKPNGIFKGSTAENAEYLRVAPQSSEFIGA
# protocol-text: EGFR target modulation in HEKn (EGFR-WT) cell line (phospho-EGFR Y1173 ELISA)
# assay-context: value outside parentheses
pIC50: −log10 of the molar value.
Please use y whenever pIC50 is not below 7, and n whenever it is.

Evaluate Cc1cccc2nc(NC(=O)c3cccc(F)c3F)n(C3CCCCN(C(=O)/C=C/CN(C)C)C3)c12 (stereo not shown) : pIC50 at minimum 7?
n

Confirm if pIC50 reported for the compound COc1cccc2nc(NC(=O)c3ccnnc3)n([C@@H]3CCCCN(C(=O)/C=C/CN(C)C)C3)c12 is 7 or above.
n

Reported pIC50 reaches at least 7 for C=CC(=O)N1CCC[C@@H](n2c(NC(=O)c3cccc(C(F)(F)F)c3)nc3cc(COC)ccc32)C1 ?
n

Check this compound for pIC50 at or above 7: Cc1cc(C(=O)Nc2nc3cccc(Cl)c3n2[C@@H]2CCCCN(C(=O)/C=C/CN3CC[C@H](F)C3)C2)ccn1
n

Please tell me: is the compound Cc1cccc2nc(NC(=O)c3cccc(-n4cnnn4)c3)n(C3CCCCN(C(=O)/C=C/CN(C)C)C3)c12 (stereo not shown) at or over 7 in terms of pIC50?
n

Does the compound C=CC(=O)N1CCCC[C@@H](n2c(NC(=O)c3ccnc(C)c3)nc3cc(CN4CCC(F)(F)C4)cc(C)c32)C1 have recorded pIC50 that is 7 or more?
y
